The measurements presented in this section are drawn from ChEMBL document CHEMBL1124370.

# Tested on: Rattus norvegicus
# experiment: In vivo inhibition of sorbitol accumulation in rat sciatic nerves at 10e-6 M concentration
# Type: functional, Sciatic nerve
# Inhibition values compiled below
Enter your answer as a number in %; do not include the unit.

Recorded results for 4 molecules are shown here.
COc1ccc2c(C(=O)N(CC(=O)O)C(=O)c3ccccc3)cccc2c1C(F)(F)F :: 40
COc1ccc2c(C(=O)N(CC(=O)O)C(C)=O)cccc2c1C(F)(F)F :: 40
COc1ccc2c(C(=O)N(C=O)CC(=O)O)cccc2c1C(F)(F)F :: 42
CSc1ccc2c(C(=O)N(C)CC(=O)O)cccc2c1C(F)(F)F :: 34

The measured Inhibition associated with CSc1ccc2c(C(=S)N(C)CC(=O)O)cccc2c1C(F)(F)F reads 72
